Can you tell me Molar absorption coefficient for the items I'm about to list?
# assay-overview: Absorption spectra of thiophene derivatives in solvents of different polarity
# Format: physicochemical
# measurement-parameters: at maximum absorption wavelength; DMSO, ET(30) 45.1

Looking for the measured Molar absorption coefficient of "CCCCCCN(CCCCCC)c1ccc(-c2ccc(-c3cc[n+](C)cc3)s2)cc1.[I-]" , can you help?
36,000 mol^−1cm^−1

Again, but for "CCCCCCN(CCCCCC)c1ccc(-c2ccc(-c3ccccn3)s2)cc1"
31,000 mol^−1cm^−1

Again, but for "CCCCCCN(CCCCCC)c1ccc(-c2ccc(-c3ncccn3)s2)cc1"
31,000 mol^−1cm^−1

Again, but for "CCCCCCN(CCCCCC)c1ccc(-c2ccc(-c3ccncc3)s2)cc1"
32,000 mol^−1cm^−1

Origin of the recorded values: patent US20120015399A1
